- Study target: T1, human CD3ε/δ-Fc fusion protein (soluble recombinant CD3ε/δ complex) (human, UniProt P04234 22-105)
- T1 construct: also called huCD3ε/δ; huCD3; not shown: hinge, CH2, CH3 of human IgG with tag
- T1 sequence (chain, as listed by the source mutant, chain 1 of 2): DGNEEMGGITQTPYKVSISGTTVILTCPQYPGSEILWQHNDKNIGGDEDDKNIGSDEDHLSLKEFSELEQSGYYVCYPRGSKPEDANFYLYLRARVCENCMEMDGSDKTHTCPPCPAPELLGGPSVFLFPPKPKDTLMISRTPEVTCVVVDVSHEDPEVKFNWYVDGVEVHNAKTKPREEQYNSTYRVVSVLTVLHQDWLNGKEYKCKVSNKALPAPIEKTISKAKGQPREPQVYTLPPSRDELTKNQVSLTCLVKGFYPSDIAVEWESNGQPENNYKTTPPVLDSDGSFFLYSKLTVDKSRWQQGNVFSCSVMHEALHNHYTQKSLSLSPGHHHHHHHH
- T1 sequence (P04234 22-105, stated change not applied, chain 2 of 2): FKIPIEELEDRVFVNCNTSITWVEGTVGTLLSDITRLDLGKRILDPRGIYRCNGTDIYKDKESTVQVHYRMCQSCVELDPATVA
- Assay: SPR, CD3-Fc captured, Fab 100 nM
Property label: RU of Fab binding at 100 nM (RU)
Give bare numbers, in RU.

Binder	RU of Fab binding at 100 nM [RU]
1E6-C9 Fab (Fab, V domains shown, also called 1E6-B8; 1E6-B8/B9-C9-Fab) VH: EVQLVETGGSLVQPGKSLKLTCATSGFTFSYAWMHWVRQSPDKQLQWVAQIKAKSNNYATYYAESVEGRFTISRDDSKSSVYLQMNSLKEEDTAIYYCRGVYYGLLGLDAWGQGTSVTVSS VL: DVVMTQTPVSLSVRLGGQVSISCRSSQSLVHNNGNTYLSWFLQKPGQSPQLLIYKVSNRFSGISDRFSGSASGTDFTLKISRVEPDDLGVYYCGQGTHYPFTFGSGTKLEIK	10

# input Which measured RU of Fab binding at 100 nM value corresponds to 18G9-H11 Fab (Fab, V domains shown) VH: EVQLVETGGSLVQPGKSLKLTCATSGFTFSNAWIQWVRQSPEKQLEWVAQIKAKSNNYATYYAESVKGRFTISRDDSKSSVYLQMNSLKEEDTALYYCTWRHYYSSHTMDAWGQGTLVTVSS VL: DVVMTQTPVSLSVSLGGQVSISCRSSQSLVHNNGNTYLSWYLQKPGQSPQLLIYKVSNRFSGISDRFSGSGSGTDFTLKISRVAPTDLGVYYCGQGSQYPFTFGAGTKLELK ?
# output 10

# credit: patent US20210292423A1
